These entries and their values trace back to patent US20260008758A1.

Target: DPP1 in HL-60 cells (Homo sapiens (Human))
Sequence (P53634 25-134): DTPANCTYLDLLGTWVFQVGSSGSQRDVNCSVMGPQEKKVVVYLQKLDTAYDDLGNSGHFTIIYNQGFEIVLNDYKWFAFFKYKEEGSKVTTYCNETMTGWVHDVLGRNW
Sequence (P53634 231-394): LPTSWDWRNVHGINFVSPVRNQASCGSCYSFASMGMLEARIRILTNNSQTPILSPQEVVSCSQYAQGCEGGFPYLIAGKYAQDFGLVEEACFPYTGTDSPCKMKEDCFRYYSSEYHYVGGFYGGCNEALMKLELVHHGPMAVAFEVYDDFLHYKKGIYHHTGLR
Sequence (P53634 395-463): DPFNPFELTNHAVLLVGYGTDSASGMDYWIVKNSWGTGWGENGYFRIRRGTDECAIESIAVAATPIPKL
Test: DPP1 Cell IC50 assay
Settings: H-Gly-Phe-AFC substrate, 60 min pre-incubation
pIC50: −log10 of the molar value.
property-name: pIC50

Completed entries (count: 5):
CO[C@@H](CN(C)C)C(=O)N[C@H](C#N)Cc1ccc(-c2ccc3oc(=O)n(C)c3c2)cc1 [Compound 105] : 8.60 to 9.00
CN(C)C[C@H](F)C(=O)N[C@H](C#N)Cc1ccc(-c2ccc3oc(=O)n(C)c3c2)cc1F [Compound 278] : ≤ 8.60
Cn1c(=O)oc2ccc(-c3ccc(C[C@@H](C#N)NC(=O)C(N)Cc4cncs4)cc3)cc21 (stereo partly drawn) [Compound 201] : ≤ 8.60
CN(C)C[C@H](O)C(=O)N[C@H](C#N)Cc1ccc(-c2ccc3c(c2)C2(CCN(C4COC4)CC2)OC3)cc1F [Compound 283] : ≤ 8.60
CN(C)C[C@H](O)C(=O)N[C@H](C#N)Cc1ccc(-c2ccc3c(n2)CCCN3)cc1F [Compound 276] : ≤ 8.60

// below: pIC50 requested for another compound
# lookup: DPP1 in HL-60 cells (Homo sapiens (Human)) pIC50, key = Cn1c(=O)oc2ccc(-c3ccc(C[C@@H](C#N)NC(=O)CC(N)C4CCCCC4)cc3)cc21 (stereo partly drawn) [Compound 188]
≤ 8.60
